Test system: 885512-296-R-J2-PDC complex spheroid viability;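 note: spheroids exposed to agents for 7 days before viability read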
Assay: Anticancer human tumor 885512-296-R-J2-PDC patient-derived breast carcinoma cell line growth inhibition
Details: second compound 1 µM; first compound 0.03 µM; active compounds read low
I'd appreciate it if you marked entries Y when viability, T/C is lower than 9% and N when it is not.

Q: Is 9% strictly greater than the compound's reported viability, T/C? compound: Nc1ccn(C2OC(CO)C(O)C2(F)F)c(=O)n1 (stereo not given) + NC1CCC(NC2CC2c2ccccc2)CC1
A: Y

Q: Is 9% strictly greater than the compound's reported viability, T/C? compound: O=C(C=Cc1cccc(S(=O)(=O)Nc2ccccc2)c1)NO + NC1CCC(NC2CC2c2ccccc2)CC1
A: N

Q: Is 9% strictly greater than the compound's reported viability, T/C? compound: Nc1ccn(C2OC(CO)C(O)C2(F)F)c(=O)n1 (stereo not given) + NC1CC1c1ccc(-c2cccc(O)c2)cc1
A: Y

Q: Is 9% strictly greater than the compound's reported viability, T/C? compound: CCN(c1cc(-c2ccc(CN3CCOCC3)cc2)cc(C(=O)NCc2c(C)cc(C)[nH]c2=O)c1C)C1CCOCC1 + NC1CC1c1ccc(-c2cccc(O)c2)cc1
A: N

Source: PubChem BioAssay AID1918946
